- assay system: Mouse ACVR2A (mouse, UniProt P27038 20-135, limits assumed); note: test concentration or dose not given here
- Sequence (P27038 20-135 limits assumed): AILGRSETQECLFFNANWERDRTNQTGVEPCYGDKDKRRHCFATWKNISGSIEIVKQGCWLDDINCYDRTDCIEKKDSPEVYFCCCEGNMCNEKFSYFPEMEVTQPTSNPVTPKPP
- assay notes: ELISA
Catalogue of binders with associated optical density
# unit: OD | format: bare number

// below: answered binders
>  <binder>
370_E04 (antibody, V domains shown, VH/VL only) VH: EVQLLESGGGLVQPGGSLRLSCAASGFTFSSYSMNWVRQAPGKGLEWVANINYNGGYKGYADSVKGRFTISRDNSKNTLYLQMNSLRAEDTAVYYCARGATWHDTHLDYWGQGTLVTVSS VL: DIQMTQSPSSLSASVGDRVTITCRASQSILTYLNWYQQKPGKAPKLLIYAVTSLHSGVPSRFSGSGSGTDFTLTISSLQPEDFATYYCQQSYETPLTFGGGTKVEIK

>  <optical density, OD>
2.72

$$$$
>  <binder>
366_G04 (antibody, V domains shown, VH/VL only) VH: EVQLLESGGGLVQPGGSLRLSCAASGFTFSSYSMNWVRQAPGKGLEWVSGINYNSGYTSYADSVKGRFTISRDNSKNTLYLQMNSLRAEDTAVYYCARSANWHDTALDYWGQGTLVTVSS VL: DIQMTQSPSSLSASVGDRVTITCRASQSIITYLNWYQQKPGKAPKLLIYAATSRASGVPSRFSGSGSGTDFTLTISSLQPEDFATYYCQQSDDTPLTFGGGTKVEIK

>  <optical density, OD>
2.18

$$$$

Next up:
Sample 365_F01 (antibody, V domains shown, VH/VL only) VH: EVQLLESGGGLVQPGGSLRLSCAASGFTFDSYSMNWVRQAPGKGLEWVSGINYNSGYKGYADSVKGRFTISRDNSKNTLYLQMNSLRAEDTAVYYCARSANWHDTHLDYWGQGTLVTVSS VL: DIQMTQSPSSLSASVGDRVTITCRASQSIVSYLNWYQQKPGKAPKLVIYAATSLASGVPSRFSGSGSGTDFTLTISSLQPEDFATYYCQQSYELPLTFGGGTKVEIK — what was its optical density? 2.47

Just for reference, patent US20210380703A1 is where these values come from.
